Target: T1, recombinant, soluble human ASGR-1 (human, UniProt P07306 62-291)
T1 construct: biotinylated in the binning assay; also called soluble huASGR-1; Soluble ASGR-1 (Amgen)
T1 sequence: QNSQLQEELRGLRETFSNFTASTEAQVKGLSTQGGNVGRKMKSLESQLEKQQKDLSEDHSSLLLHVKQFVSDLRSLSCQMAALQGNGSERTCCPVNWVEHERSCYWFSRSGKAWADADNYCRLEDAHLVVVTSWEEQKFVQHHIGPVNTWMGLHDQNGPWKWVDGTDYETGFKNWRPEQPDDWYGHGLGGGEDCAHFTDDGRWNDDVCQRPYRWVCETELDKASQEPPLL
Assay: Octet BLI dissociation, pH 5.6 plus calcium
measurement-name: % Change Compared to pH 7.4 + Calcium (%)
Hi! Could you send only the number? It should be in %, unit omitted.

See these solved cases before continuing.
32D6 (antibody, V domains shown, hybridoma mAb) VH: QVQLVESGGGVVQPGRSLRLSCAASGFTFSSYGMHWVRQAPGKGLEWVTVIWHDGSNAYYADSVKGRFTISRDNSKNTLYLQMNSLRAEDTAVYYCARENSSSYYFDYWGQGTLVTVSS VL: DIQMTQSPSSLSTSVGDRVTITCRASQNIISYLNWYQQKPGKAPKLLMYVASRLQSGVPSRFSGSGSGTDFTLTISSLQAEDFATYYCQQSYSTPYTFGGGTKVAIK	33
199A7 (antibody, V domains shown, hybridoma mAb) VH: QVQLVESGGGVVQPGRSLRLSCAASGFTFSNYGMHWVRQAPGKGLEWVAIIWFDGSNKYYADSVKGRFTISRDNSKNTLFLQMSSLRAEDTAVYYCAREWLQFRYYYGMDVWGQGTTVTVSS VL: DIQMTQSPSSLSASVGDRVTITCRASQGIRKDLGWYQQKPGKAPKRLIYAASSLQSGVPSRFSGSGSGTEFTLTISSLQPEDFATYVCLQHYRYPFTFGPGTKVDFK	1

Next binder, please.
Ask | Given the binder 191G12 (antibody, V domains shown, hybridoma mAb) VH: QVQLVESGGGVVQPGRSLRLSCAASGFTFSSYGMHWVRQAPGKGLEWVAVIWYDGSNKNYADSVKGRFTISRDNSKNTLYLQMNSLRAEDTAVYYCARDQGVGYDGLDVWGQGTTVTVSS VL: DIQMTQSPSSLSASVGDRVTITCRTSQGIGNYLAWFQQKPGKAPKSLLYKASSLQSGVPSKFSGSGSGTDFTLTISSLQPEDFATYYCQQYITYPLTFGGGSKVEIK , what is its reported % Change Compared to pH 7.4 + Calcium?
Reply | -5
